Entries and their melting point

Molecule	melting point
Fc1ccc(-c2cnc(Nc3ccccn3)s2)cc1 [Compound 5-20]	239 to 240 °C
Fc1cccc(-c2cnc(Nc3ccccn3)s2)c1 [Compound 5-19]	> 250 °C
COC(=O)c1cccc(Nc2ncc(-c3ccccc3)s2)n1 [Compound 4-6]	231 to 232 °C
FC(F)(F)c1cccc(-c2cnc(Nc3ccccn3)s2)c1 [Compound 5-15]	242 to 244 °C
Cc1ccccc1-c1cnc(Nc2ccccn2)s1 [Compound 5-6]	155 to 160 °C

###

Structures can show the parent of a compound that is named as a salt.
Entries and their melting point
Observable: melting point

Compound	Result
Clc1ccc(-c2cnc(Nc3ccccn3)s2)cc1Cl	> 250 °C
FC(F)(F)c1ccc(-c2cnc(Nc3ccccn3)s2)cc1	> 250 °C
Fc1ccccc1-c1cnc(Nc2ccccn2)s1	227 to 228 °C
FC(F)(F)c1ccccc1-c1cnc(Nc2ccccn2)s1	195 to 203 °C
CCc1cnc(Nc2ccccn2)s1	113 °C
Clc1ccc(-c2cnc(Nc3ccccn3)s2)cc1	> 250 °C
c1ccc(Nc2ncc(-c3cccc4ccccc34)s2)nc1	223.5 to 226 °C
Cc1cccc(-c2cnc(Nc3ccccn3)s2)c1	204 to 205 °C
Brc1ccc(Nc2ncc(-c3ccccc3)s2)nc1 (as salt: HBr)	> 220 °C
Clc1ccccc1-c1cnc(Nc2ccccn2)s1	213 to 215 °C
